System: TK-10 renal
assay.method.text: NCI tumour cell line growth inhibition, 48 h
quantity.measured: TGI

molecule | quantity.measured | result
Cc1ccc2c(c1)c1nc3cc(C)c(C)cc3nc1n2CCN(C)C | TGI | 7.94 µM
CCOc1ccc(NC(=O)C(=O)NO)cc1 | TGI | > 100 µM
CN(C)c1nc(N(C)C)nc(N(C)CN(C)c2ccc(Cl)cc2)n1 | TGI | > 100 µM
Cc1cc(NCCCNc2ccnc3cc(Cl)ccc23)nc(N2CCN(C)CC2)n1 | TGI | 29.9 µM
Nc1ccc2nc(NCc3ccc(F)cc3)cnc2c1 | TGI | > 100 µM
CCCCOc1ccc(NC(=O)n2nc(N)c3ccccc32)cc1 | TGI | > 73.5 µM
COc1ccc2c(c1)CCN=C2Cc1cc(OC)c(OC)cc1CCCl | TGI | > 100 µM
CSc1cccc(-n2c3nc(=O)n(C)c(=O)c-3nc3ccccc32)c1 | TGI | 40.9 µM
Cn1cc(C2=C(c3cn(CCO)c4ccccc34)C(=O)NC2=O)c2ccccc21 | TGI | 15.5 µM
NC(=O)C#CC#CC#CCO | TGI | 3.01 µM
Cc1cc2c(cc1Cl)SC(c1ccccc1)C(=O)NS2(=O)=O (configuration not stated) | TGI | > 100 µM
Cc1ccccc1C1OC(=O)c2ccccc21 (configuration not stated) | TGI | > 100 µM
